Data origin, for the record: paper PMC4546618

Recorded Ambulatory day activity values for a group of compounds are listed next.
# Tested on: mice fed a high-fat diet
# method: Indirect energy expenditure and physical activity measurement
# Assay type: in vivo
# testConditions: photobeam break counts; after 12 weeks daily i.p. 5 mg/kg on high-fat diet; vehicle 2,069 ± 705
Where a SMILES comes first, the peptide text is derived from it. [ ]: non-standard residue; d: D form. Pro(trans-4-F) = O=C(O)[C@@H]1C[C@@H](F)CN1; Phe(3-F) = N[C@@H](Cc1cccc(F)c1)C(=O)O; Phg = N[C@H](C(=O)O)c1ccccc1; Thz = O=C(O)[C@@H]1CSCN1

Worked cases, Ambulatory day activity given:
CC(=O)N[C@@H](CCCCN)C(=O)N1C[C@H](F)C[C@H]1C(=O)N[C@@H](C)C(=O)N[C@@H](CC(C)C)C(=O)N[C@@H](CCCCN)C(N)=O [Peptide 60, Ac-K(t)ALK-NH2] (Ac-K[Pro(trans-4-F)]ALK-NH2): 2,025 ± 945 per 12 h
CC(=O)N[C@@H](CCCCN)C(=O)N1CSC[C@H]1C(=O)N[C@@H](C)C(=O)N[C@H](C(=O)N[C@@H](CCCCN)C(N)=O)[C@@H](C)O [Peptide 49, Ac-K(r)ATK-NH2] (Ac-K[Thz]ATK-NH2): 4,012 ±1,207 per 12 h

Entry CC(=O)N1CSC[C@H]1C(=O)N[C@@H](Cc1cccc(F)c1)C(=O)N[C@@H](CCCCN)C(=O)N1CCC[C@H]1C(=O)N1CCC[C@H]1C(N)=O [Peptide 34, Ac-(r) (h)KPP-NH2] (Ac-[Thz][Phe(3-F)]KPP-NH2) , mice fed a high-fat diet data, Ambulatory day activity value: 3,485 ± 864 per 12 h

Let me check: CC(=O)N[C@@H](CCCCN)C(=O)N1C[C@H](F)C[C@H]1C(=O)N[C@@H](C)C(=O)N[C@H](C(=O)N[C@@H](CCCCN)C(N)=O)[C@@H](C)O [Peptide 51, Ac-K(t)ATK-NH2] (Ac-K[Pro(trans-4-F)]ATK-NH2) , system mice fed a high-fat diet, measured Ambulatory day activity is 4,953 ± 1,014 per 12 h

# lookup: CC(=O)N1CCC[C@H]1C(=O)N[C@@H](Cc1cccc(F)c1)C(=O)N[C@@H](CCCCN)C(=O)N1CCC[C@H]1C(=O)N1CCC[C@H]1C(N)=O [Peptide 10, Ac-P(h)KPP-NH2] (Ac-P[Phe(3-F)]KPP-NH2) on mice fed a high-fat diet, Ambulatory day activity = 3,512 ± 923 per 12 h

The value of Ambulatory day activity recorded for CC(=O)N1CCC[C@H]1C(=O)N[C@H](C(=O)N[C@@H](CCCCN)C(=O)N1CCC[C@H]1C(=O)N1CCC[C@H]1C(N)=O)c1ccccc1 [Peptide 3, Ac-P(a)KPP-NH2] (Ac-P[Phg]KPP-NH2) when tested on mice fed a high-fat diet reads 2,158 ± 763 per 12 h
